# assayed-system: HuR F247A/Y249A (human, UniProt Q15717 1-326, F247A;Y249A)
# Sequence (Q15717 whole entry F247A/Y249A): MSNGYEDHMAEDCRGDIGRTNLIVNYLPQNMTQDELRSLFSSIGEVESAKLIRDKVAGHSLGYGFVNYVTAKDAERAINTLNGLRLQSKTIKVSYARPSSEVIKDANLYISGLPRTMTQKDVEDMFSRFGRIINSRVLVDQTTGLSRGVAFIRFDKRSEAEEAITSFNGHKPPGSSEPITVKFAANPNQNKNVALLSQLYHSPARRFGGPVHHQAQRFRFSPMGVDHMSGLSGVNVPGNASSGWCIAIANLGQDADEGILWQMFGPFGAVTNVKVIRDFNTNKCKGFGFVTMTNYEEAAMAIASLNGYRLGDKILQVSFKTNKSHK
# experiment-notes: ITC; n=0.8; ITC: 50 mM sodium phosphate pH 7.0, 200 mM NaCl, 2 mM beta-mercaptoethanol, 298 K; NMR: 20 mM sodium phosphate pH 7.0, 200 mM NaCl, 5 mM DTT, 1 mM EDTA, 298 K
# reported-conditions: protein: recombinant; tags: untagged (tag cleaved)
reported-metric: Kd (nM)

> print(dat)
                             binder  recorded.result
1  AUUUUUAUUUUAUUUUU (ssRNA) [AU17]              351
